target: USP14 (Homo sapiens, UniProt P54578); assay: SPR binding to recombinant USP14, NTA chip; details: NTA chip; protein from ProSpec; read-out: USP14(P) KD
Sequence (P54578 whole entry): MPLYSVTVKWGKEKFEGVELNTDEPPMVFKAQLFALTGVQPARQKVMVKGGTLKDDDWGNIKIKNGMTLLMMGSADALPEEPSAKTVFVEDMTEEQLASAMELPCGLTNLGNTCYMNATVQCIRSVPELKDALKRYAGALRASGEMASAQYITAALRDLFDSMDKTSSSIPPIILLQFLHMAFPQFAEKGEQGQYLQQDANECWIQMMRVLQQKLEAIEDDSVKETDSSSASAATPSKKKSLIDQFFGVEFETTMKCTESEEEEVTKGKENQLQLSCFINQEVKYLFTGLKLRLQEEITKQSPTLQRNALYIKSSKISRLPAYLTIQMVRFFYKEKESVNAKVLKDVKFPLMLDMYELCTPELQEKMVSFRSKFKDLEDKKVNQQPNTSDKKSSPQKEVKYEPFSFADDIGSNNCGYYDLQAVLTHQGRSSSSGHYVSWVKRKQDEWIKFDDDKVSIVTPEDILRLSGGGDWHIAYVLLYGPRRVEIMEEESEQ
reported.endpoint: Kd (µM)

1) C=CC(=O)N1CC/C(=C\c2ccc(F)c([N+](=O)[O-])c2)C(=O)/C(=C/c2ccc(F)c([N+](=O)[O-])c2)C1; 8.1

----------
target: UniProt:P54578; test: SPR binding to recombinant USP14, CM7 chip; settings: protein from Karolinska Institute Protein Science Facility, read-out: USP14(K) KD
pKd: −log10 of the molar value.
reported.endpoint: pKd

1) C=CC(=O)N1CC/C(=C\c2ccc(F)c([N+](=O)[O-])c2)C(=O)/C(=C/c2ccc(F)c([N+](=O)[O-])c2)C1; 4.46
